Target: HA H1 A/California/07/09 (Influenza A virus (A/California/07/2009(H1N1)), UniProt C3W5X2)
Experiment: biochemical
Conditions: Competition binding (AlphaLISA), pIC50 H1 A/California/07/09
measured_quantity: IC50 (nM)

• COC(=O)C(c1ccncc1)N1CCN(C(=O)c2cccc(-c3nc4ccc(OC)cc4s3)c2)CC1 (stereo not drawn) = 398
• Cc1nnc([C@@H](c2ccccc2)N2CCN(C(=O)c3cccc(-c4nc5cccc(C)c5o4)c3)CC2)o1 = 251
• CNC(=O)c1cnc(-c2cccc(C(=O)N3CCN(C(C(=O)OC)c4ccccc4)CC3)c2)s1 (stereo not drawn) = 79.4
• CC(=O)Nc1ccc2oc(-c3ccnc(C(=O)N4CCN([C@H](c5ccccc5)c5n[nH]c(C)n5)CC4)c3)nc2c1 = 7.94
• COc1ccc2nc(-c3cccc(C(=O)N4CCN(C(c5ccccc5)c5nnco5)CC4)c3)sc2c1 (stereo not drawn) = 200
• COC(=O)C(c1ccccc1)N1CCN(C(=O)c2cccc(-c3nc4cc(OC(F)(F)F)ccc4o3)c2)CC1 (stereo not drawn) = 20
• Cc1nnc([C@@H](c2ccccc2)N2CCN(C(=O)c3cc(-c4nc5cc(OC(F)(F)F)ccc5o4)ccn3)CC2)o1 = 6.31
• COC(=O)C(c1ccccc1)N1CCN(C(=O)c2cccc(-c3nc4cc(NC(C)=O)ccc4o3)c2)CC1 (stereo not drawn) = 6.31
• COC(=O)C(c1ccccn1)C1CCN(C(=O)c2cccc(-c3nc4ccc(OC)cc4s3)c2)CC1 (stereo not drawn) = 100
• COC(=O)C(c1ccccc1)N1CCN(C(=O)c2cccc(-c3ncc(C(=O)N4CCOCC4)s3)c2)CC1 (stereo not drawn) = 79.4
• CCCNC(=O)C(c1ccccc1)N1CCN(C(=O)c2cccc(-c3nc4ccc(OC)cc4s3)c2)CC1 (stereo not drawn) = 251
• O=C(c1cc(-c2nc3cc(C(F)(F)F)ccc3o2)ccn1)N1CCN(C(c2ccccc2)c2nnc(C3CC3)o2)CC1 (stereo not drawn) = 31.6
• Cc1nnc([C@@H](c2ccccc2)N2CCN(C(=O)[C@H]3CCCN(c4nc5cc(C(F)(F)F)ccc5o4)C3)CC2)o1 = 200
• COC(=O)C(c1ccccc1)N1CCN(C(=O)c2cccc(-c3nc4ccc(OC)cc4[nH]3)c2)CC1 (stereo not drawn) = 200
• COC(=O)[C@@H](c1ccccc1)N1CCN(C(=O)c2cccc(-c3nc4ccccc4s3)c2)CC1 = 50.1

====

Molecular target: HA H1 A/New Caledonia/20/99 (Influenza A virus (A/New Caledonia/20/1999(H1N1)), UniProt Q6WG00)
Experiment: biochemical
Settings: Competition binding (AlphaLISA), pIC50 H1 A/New Caledonia/20/99
pIC50: −log10 of the molar value.
measured_quantity: pIC50

• COC(=O)[C@@H](c1ccccc1)N1CCN(C(=O)c2cccc(-c3nc4cc(C(F)(F)F)ccc4o3)c2)CC1 = 7.70
• COC(=O)C(c1ccccc1)N1CCN(C(=O)c2cccc(-c3nc4ccc(OC)cc4s3)c2)CC1 (centres unmarked) = 7.80
• COC(=O)C(C)(c1ccccc1)N1CCN(C(=O)c2cccc(-c3nc4ccc(OC)cc4s3)c2)CC1 (centres unmarked) = 7.30
• COCC(c1ccccc1)N1CCN(C(=O)c2cccc(-c3nc4ccc(OC)cc4s3)c2)CC1 (centres unmarked) = 6.80
• COc1ccc2oc(-c3cccc(C(=O)N4CCN(C(c5ccccc5)c5nnc(C)o5)CC4)c3)nc2c1 (centres unmarked) = 7.60
• Cc1coc(C(c2ccccc2)N2CCN(C(=O)c3cc(-c4nc5cc(OC(F)(F)F)ccc5o4)ccn3)CC2)n1 (centres unmarked) = 7.70
• CCCNC(=O)C(c1ccccc1)N1CCN(C(=O)c2cccc(-c3nc4ccc(OC)cc4s3)c2)CC1 (centres unmarked) = 6.70
• COC(=O)[C@H](c1ccccc1)N1CCN(C(=O)c2cccc(-c3nc4cc(C(F)(F)F)ccc4o3)c2)[C@H](C(N)=O)C1 = 7.50
• COc1nnc([C@@H](c2ccccc2)N2CCN(C(=O)c3cc(-c4nc5cc(OC(F)(F)F)ccc5o4)ccn3)CC2)o1 = 8.10
• COc1ccc2nc(-c3cccc(C(=O)N4CCN(C(c5ccccc5)c5nnc(C)o5)CC4)c3)sc2c1 (centres unmarked) = 7.00
• Cc1nnc([C@@H](c2ccccc2)N2CCN(C(=O)[C@H]3CCCN(c4nc5cc(C(F)(F)F)ccc5o4)C3)CC2)o1 = 6.50
• CC(=O)Nc1ccc2oc(-c3ccnc(C(=O)N4CCN([C@H](c5ccccc5)c5n[nH]c(C)n5)CC4)c3)nc2c1 = 8.30
• Cc1nnc([C@@H](c2ccccc2)N2CCN(C(=O)c3cccc(-c4ncc5ccccc5n4)c3)CC2)o1 = 7.30
• CNc1ccc2oc(-c3cccc(C(=O)N4CCN(C(C(=O)OC)c5ccccc5)CC4)c3)nc2c1 (centres unmarked) = 8.40
• COC(=O)[C@@H](c1ccccc1)C1CCN(C(=O)c2cccc(-c3nc4ccc(OC)cc4s3)c2)CC1 = 7.30
• COc1ccc2nc(-c3cccc(C(=O)N4CCN(C(c5ccccc5)c5nnco5)CC4)c3)sc2c1 (centres unmarked) = 7.10
• COC(=O)C(c1ccccc1)N1CCN(C(=O)c2cccc(-c3nc4ccncc4o3)c2)CC1 (centres unmarked) = 7.60
• COC(=O)C(c1ccccc1)N1CCN(C(=O)c2cccc(-c3nc4ccc(OC)cc4s3)n2)CC1 (centres unmarked) = 6.50
• CCOC(=O)[C@@H](c1ccccc1)N1CCN(C(=O)c2cccc(-c3ccc(OC)cc3)c2)CC1 = 6.90
• COC(=O)C(c1ccccc1)N1CCN(C(=O)c2cccc(-c3ncc(C(=O)N4CCOCC4)s3)c2)CC1 (centres unmarked) = 7.10
• COC(=O)[C@@H](c1ccccc1)N1CCN(C(=O)c2cccc(-c3nc4ccc(OC)cc4s3)c2)CC1 [Example 22] = 7.90
• COc1ccc2nc(-c3cccc(C(=O)N4CCN(C(C(=O)NCCCN)c5ccccc5)CC4)c3)sc2c1 (centres unmarked) = 7.30
• Cc1nnc([C@@H](c2ccccc2)N2CCN(C(=O)c3cc(F)cc(-c4nc5cc(C(F)(F)F)ccc5o4)c3)CC2)o1 = 6.80
• COC(=O)C(c1ccccc1)N1CCN(C(=O)c2cccc(-c3nc4ccccc4o3)c2)CC1 (centres unmarked) = 7.60
• COc1ccc2nc(-c3cccc(C(=O)N4CCN(C(C(C)=O)c5ccccc5)CC4)c3)sc2c1 (centres unmarked) [Example 90] = 6.80
• COC(=O)C(c1ccccc1)N1CCN(C(=O)c2cccc(-c3nc4cc(O)ccc4o3)c2)CC1 (centres unmarked) = 7.60
• Cc1nnc([C@@H](c2ccccc2)N2CCN(C(=O)c3cccc(-c4cc5ccccc5cn4)c3)CC2)o1 = 6.80
• COC(=O)C(c1ccccc1)N1CCN(C(=O)c2cccc(-c3nc4cccnc4o3)c2)CC1 (centres unmarked) = 7.20
• Cc1nnc(C(c2ccccc2)N2CCN(C(=O)c3cc(-c4nc5cc(OC(F)(F)F)ccc5o4)ccn3)CC2)s1 (centres unmarked) = 6.70

src = patent US11040963B2
